target.system: FAAH (Homo sapiens, UniProt O00519)
Sequence (O00519 1-579): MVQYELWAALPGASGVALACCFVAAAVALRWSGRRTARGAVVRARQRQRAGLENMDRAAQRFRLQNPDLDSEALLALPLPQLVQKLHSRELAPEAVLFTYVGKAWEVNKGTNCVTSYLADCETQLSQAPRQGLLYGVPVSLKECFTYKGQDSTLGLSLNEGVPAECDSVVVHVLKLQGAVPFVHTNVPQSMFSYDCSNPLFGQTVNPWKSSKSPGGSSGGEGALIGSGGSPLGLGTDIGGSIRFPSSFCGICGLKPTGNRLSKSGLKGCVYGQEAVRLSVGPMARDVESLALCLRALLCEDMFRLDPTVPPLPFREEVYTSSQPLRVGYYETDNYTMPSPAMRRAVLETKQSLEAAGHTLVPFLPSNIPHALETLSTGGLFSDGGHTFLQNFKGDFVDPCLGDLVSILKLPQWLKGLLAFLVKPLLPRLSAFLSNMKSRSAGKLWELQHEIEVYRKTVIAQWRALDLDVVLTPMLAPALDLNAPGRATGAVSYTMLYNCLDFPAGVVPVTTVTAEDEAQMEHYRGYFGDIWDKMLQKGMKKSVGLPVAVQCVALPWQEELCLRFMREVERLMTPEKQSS
measurement.protocol: In vitro competitive activity-based protein profiling, FAAH, human
condition.notes: read-out: FAAH % inh. 1 μM (human)
Hi there, I'd appreciate the recorded inhibition at 1 µM for every entry that follows.

Consider the reported inhibition at 1 µM for these compounds:
{"columns": ["compound", "result"],
 "data": [
  ["O=C(O)c1ccn(C(=O)N2CCC3(CCN(Cc4ccc(Oc5ccc(Cl)cc5)cc4)C3)CC2)n1", "0 to 25%"],
  ["Cc1cn(C(=O)N2CCC3(CCN(Cc4cc(Cl)ccc4C(F)(F)F)C3)CC2)nc1C(=O)O", "50 to 75%"],
  ["O=C(O)c1ccn(C(=O)N2CCC(OCc3cc(F)cc(Cl)c3)CC2)n1", "> 75%"]
]}

// for each compound in input: emit inhibition at 1 µM
1. O=C(O)c1ccn(C(=O)N2C[C@H]3C[C@H](OCc4cccc(C(F)(F)F)c4)C[C@H]3C2)n1
2. Cc1ccc(CN2CCN(C(=O)n3ccc(C(=O)O)n3)CC2)c(-c2nnco2)c1
3. O=C(O)c1nn(C(=O)N2CC3CC(OCc4ccccc4Cl)CC3C2)cc1C(F)(F)F (stereo not shown)
4. O=C(O)c1ccn(C(=O)N2CCC3(CCCN3Cc3cc4ccc(C(F)(F)F)cc4s3)CC2)n1

["> 75%", "0 to 25%", "> 75%", "0 to 25%"]

// for each compound in input: emit inhibition at 1 µM
1. CN(Cc1cccc(-c2ccccc2)c1)[C@@H]1C[C@@H]2CN(C(=O)n3ccc(C(=O)O)n3)C[C@@H]2C1
2. O=C(O)c1ccn(C(=O)N2CCC3(CCCN3Cc3ccc(C(F)(F)F)cc3-c3nnn[nH]3)CC2)n1
3. NC(=O)c1ccn(C(=O)N2CCC3(CCN(Cc4cc(Cl)ccc4C(F)(F)F)C3)CC2)n1
4. NC(=O)c1ccn(C(=O)N2CCN(Cc3cccc(-c4cncnc4)c3)CC2)n1
5. O=C(O)c1ccn(C(=O)N2CCN(Cc3ccc(C(F)(F)F)cc3Cl)CC2)n1
6. NC(=O)c1ccn(C(=O)N2CCN(Cc3ccc(Cl)cc3)CC2)n1
7. O=C(O)c1ccn(C(=O)N2CCC3(CCN(Cc4ccc(N5CCCC5)cc4C(F)(F)F)C3)CC2)n1
8. O=C(O)c1ccn(C(=O)N2CC3CN(Cc4cc(Cl)cc(C(F)(F)F)c4)CC3C2)n1 (stereo not shown)

1: 25 to 50%; 2: 0 to 25%; 3: > 75%; 4: 50 to 75%; 5: 0 to 25%; 6: > 75%; 7: 0 to 25%; 8: 50 to 75%
